Biological target: Angiotensin I-converting enzyme (ACE) (Homo sapiens)
Sequence (P12821 30-1306, species assumed): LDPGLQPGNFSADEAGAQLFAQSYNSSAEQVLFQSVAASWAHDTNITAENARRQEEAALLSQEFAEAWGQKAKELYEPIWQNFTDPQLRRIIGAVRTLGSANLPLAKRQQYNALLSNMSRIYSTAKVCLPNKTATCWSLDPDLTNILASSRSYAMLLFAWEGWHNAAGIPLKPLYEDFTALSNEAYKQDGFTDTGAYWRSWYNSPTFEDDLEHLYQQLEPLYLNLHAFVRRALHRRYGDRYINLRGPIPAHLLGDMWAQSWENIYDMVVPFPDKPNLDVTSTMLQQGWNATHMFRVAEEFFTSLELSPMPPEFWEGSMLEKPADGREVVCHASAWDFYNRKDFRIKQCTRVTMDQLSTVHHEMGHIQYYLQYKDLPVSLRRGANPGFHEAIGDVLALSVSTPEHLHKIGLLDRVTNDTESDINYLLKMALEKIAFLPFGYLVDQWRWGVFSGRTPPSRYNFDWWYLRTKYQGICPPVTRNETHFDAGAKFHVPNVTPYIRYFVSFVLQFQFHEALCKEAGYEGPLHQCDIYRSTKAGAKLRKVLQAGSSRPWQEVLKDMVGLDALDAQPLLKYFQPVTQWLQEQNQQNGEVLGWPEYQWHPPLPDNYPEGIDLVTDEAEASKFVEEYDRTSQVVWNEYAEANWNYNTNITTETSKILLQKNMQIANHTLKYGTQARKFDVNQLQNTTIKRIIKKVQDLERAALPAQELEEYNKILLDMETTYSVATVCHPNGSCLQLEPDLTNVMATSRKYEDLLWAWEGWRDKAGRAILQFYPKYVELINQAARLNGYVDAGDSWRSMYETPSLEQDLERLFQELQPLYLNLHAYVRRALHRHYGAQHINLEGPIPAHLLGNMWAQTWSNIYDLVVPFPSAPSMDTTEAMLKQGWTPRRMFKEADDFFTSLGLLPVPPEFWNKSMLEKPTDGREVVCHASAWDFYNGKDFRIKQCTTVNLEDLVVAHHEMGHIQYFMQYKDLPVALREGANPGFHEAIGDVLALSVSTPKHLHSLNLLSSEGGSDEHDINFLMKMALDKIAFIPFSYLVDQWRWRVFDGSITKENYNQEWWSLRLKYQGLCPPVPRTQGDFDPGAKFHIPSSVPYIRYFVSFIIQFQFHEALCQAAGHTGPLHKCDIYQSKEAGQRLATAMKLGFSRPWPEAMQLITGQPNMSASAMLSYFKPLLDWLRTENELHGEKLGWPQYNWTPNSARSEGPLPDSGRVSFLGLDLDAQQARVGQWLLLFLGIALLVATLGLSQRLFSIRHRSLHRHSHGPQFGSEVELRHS
Experiment: ACE inhibitory activity assay (Dojindo ACE kit-WST)
Type: biochemical
Design: purchased Dojindo (Kumamoto, Japan)
Settings: mean ± SD of triplicate experiments, read-out: IC50 value of ACE inhibition
Where a SMILES comes first, the peptide text is derived from it.
parameter: IC50 (µM)
Expressed in µM, but write only the number.

[in] Provide one value: measured IC50 of NCCCC[C@H](NC(=O)[C@H](Cc1ccc(O)cc1)NC(=O)[C@@H](N)Cc1c[nH]c2ccccc12)C(=O)O [WYK, Tryptophan-Tyrosine-Lysine] (H-Trp-Tyr-Lys-OH)
[out] 33

[in] Provide one value: measured IC50 of CC[C@H](C)[C@H](N)C(=O)N[C@H](C(=O)N[C@@H](CC(=O)O)C(=O)N[C@@H](CCCNC(=N)N)C(=O)O)C(C)C [IVDR, Isoleucine-Valine-Aspartic acid-Arginine] (H-IVDR-OH)
[out] 46.9
